Provenance of the data: PubChem BioAssay AID1159580

measurement_description: chemical genetic growth profiling, strain panel (AID 1159580);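 note: tested at 20 µM; growth read once vehicle control cultures reached saturation at 30 °C; 1 = growth at the plate median or of vehicle wells; lower values mean less growth of the strain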
particulars: S. cerevisiae deletion strains, growth OD, locus YNR049C, strain mso1, stronger effect = lower value
The whole screen tested about 5,500 compounds, of which about 2,000 (36%) were called active. About 18% were inconclusive and are not listed. This is one part of the list.
assay_endpoint: normalized growth
Respond using a number only.

compound	normalized growth
COc1ccccc1N1CCN(CCCNc2cc(=O)n(C)c(=O)n2C)CC1	1.02
CC(C)C[C@@H](NC(=O)OCC1c2ccccc2-c2ccccc21)C(=O)O	0.998
C[C@@H]1O[C@@H](O[C@H]2CC[C@]3(C=O)C4CC[C@]5(C)[C@@H](C6=CC(=O)OC6)CC[C@]5(O)C4CC[C@]3(O)C2)[C@H](O)[C@H](O)[C@H]1O (some centres undefined)	1.01
C[C@@H](CO)NC(=O)C1C=C2c3cccc4[nH]cc(c34)C[C@H]2N(C)C1 (some centres undefined)	1.01
COc1ccc(-c2cc(=O)c3c(O)cc(O)c(-c4cc(-c5cc(=O)c6c(O)cc(O)cc6o5)ccc4OC)c3o2)cc1	1.01

Record OC1(c2ccc(Cl)c(C(F)(F)F)c2)CCN(CCCC(c2ccc(F)cc2)c2ccc(F)cc2)CC1 . Reported normalized growth: 0.12

Record CC1(C)[C@@H]2CC[C@@]1(C)C(=O)C2 . Reported normalized growth: 1.01

Record NC(=O)c1cc([N+](=O)[O-])cc([N+](=O)[O-])c1 . Reported normalized growth: 1.01

Record Cc1c(OCC(F)(F)F)ccnc1CS(=O)c1nc2ccccc2[nH]1 (centres undefined) . Reported normalized growth: 1.01

Record COC1C(O)C(O[C@H]2CC[C@]3(C=O)C4C(CC[C@]3(O)C2)[C@@]2(O)CC[C@H](C3=CC(=O)OC3)[C@@]2(C)C[C@H]4OC(C)=O)OC(C)C1OC(C)=O (some centres undefined) . Reported normalized growth: 0.972

Record O=C(Oc1cccc2cccnc12)c1ccccc1 . Reported normalized growth: 0.944

Record C[C@@H]1CC[C@@]23CCC4(C)[C@@](C=CC5[C@@]6(C)CC[C@H](O)C(C)(C)C6CC[C@]54C)(OC2=O)C3[C@H]1C (some centres undefined) . Reported normalized growth: 1.01

Record NC[C@@H]1O[C@H](O[C@@H]2[C@@H](CO)OC(O[C@@H]3[C@@H](O)[C@H](N)C[C@H](N)[C@H]3O[C@H]3O[C@H](CO)[C@@H](O)[C@H](O)[C@H]3N)[C@@H]2O)[C@H](N)[C@@H](O)[C@@H]1O (some centres undefined) . Reported normalized growth: 0.993

Record O=C(CCCN1CCC2(CC1)C(=O)NCN2c1ccccc1)c1ccc(F)cc1 . Reported normalized growth: 0.955
